- Tested on: Gallesekretion narkotisierter Ratten
- measurement description: Bile secretion (choleresis) of anaesthetised rats after intraduodenal administration
- Assay type: in vivo, Ratte
- settings: Rattus norvegicus, 0.5 h; Ratte i.d.; dose that raises bile secretion (fluid volume, 30-min fraction) by maximally 50 %
reported metric: ED50 (mg/kg)

>>> measurement("CC(C)(C)CC(C)(C)N(CCCC(=O)O)C(=O)c1ccc(Cl)cc1 [Lfd. Nr. 7]")
40
>>> measurement("C#CC1(N(CCCC(=O)O)C(C)=O)CCCCC1 [Lfd. Nr. 8]")
6
>>> measurement("O=C(O)CCCN(C(=O)c1ccc(Cl)cc1)C12CC3CC(CC(C3)C1)C2 [Lfd. Nr. 6]")
5
>>> measurement("CC(C)(C)N(CCCC(=O)O)C(=O)c1ccc(Cl)cc1 [Lfd. Nr. 2]")
25
>>> measurement("C#CC(CC)(CC)N(CCCC(=O)O)C(=O)c1ccc(Cl)cc1 [Lfd. Nr. 4]")
18

###

- measurement description: Acute toxicity in mice, intraperitoneal
- Format: in vivo
- settings: mouse, in vivo, ip; Maus, i.p.; female NMRI mice, 14 days observation; read-out: Toxizität LD50
Recorded LD50 at 336 h values for a group of compounds are listed next.
reported metric: LD50 at 336 h

>>> measurement("CC(C)(C)N(CCCC(=O)O)C(=O)c1ccc(Cl)cc1")
"> 1000 mg/kg"
>>> measurement("O=C(O)CCCN(C(=O)c1ccc(Cl)cc1)C12CC3CC(CC(C3)C1)C2")
"1100 mg/kg"
>>> measurement("CCC(C)(C)N(CCCC(=O)O)C(=O)c1ccc(Cl)cc1Cl")
"200 mg/kg"
>>> measurement("C#CC1(N(CCCC(=O)O)C(C)=O)CCCCC1")
"190 mg/kg"
>>> measurement("O=C(O)CCCN(Cc1ccccc1)C(=O)c1ccc(Cl)cc1")
"150 mg/kg"
>>> measurement("C#CC(C)(C)N(CCCC(=O)O)C(=O)c1ccc(Cl)cc1")
"> 1000 mg/kg"
>>> measurement("O=C(O)CCCN(C(=O)c1ccc(Cl)cc1)C1CCCCCCC1")
"350 mg/kg"
>>> measurement("C#CC(CC)(CC)N(CCCC(=O)O)C(=O)c1ccc(Cl)cc1")
"780 mg/kg"
